PARTICULARS: buffer; pH 7.4; 200.0 µM
REPORTED_METRIC: solubility kinetic

Prompt: Form field: reported solubility kinetic of CCOC(=O)CC(N)c1cccc([N+](=O)[O-])c1.Cl (centres undefined)
Response: > 41.2 µg/mL

Prompt: Try the molecule `Nc1nc(NCC(=O)O)nc(NCc2ccccc2)c1[N+](=O)[O-]`
Response: > 47.7 µg/mL

Prompt: Try the molecule `COc1cccc(NC(=O)c2cccnn2)c1`
Response: > 34.4 µg/mL

Prompt: Try the molecule `COc1ccc(C(=O)Nc2ccc(N3CCCC3)cc2)cc1Br`
Response: < 0.4 µg/mL

Prompt: Try the molecule `O=C1NC2(CCCCCC2)C(=O)N1Cc1c(F)cccc1Cl`
Response: 9.6 µg/mL

Prompt: Try the molecule `C=CCn1c(NCc2ccccc2O)nc2ccccc21`
Response: 2.4 µg/mL

Prompt: Try the molecule `Cc1csc(NC(=O)CSc2nccn2C)n1`
Response: > 40.3 µg/mL

Prompt: Try the molecule CN(C)C(CNS(=O)(=O)c1ccc(Cl)cc1F)c1ccco1.Cl (centres undefined)
Response: > 57.5 µg/mL

Prompt: Try the molecule `CCC(=O)NCCc1nc2cc(NC(=O)c3ccco3)ccc2n1C`
Response: 48 µg/mL

* * *

PARTICULARS: buffer; pH 7.4; 200.0 µM
REPORTED_METRIC: solubility kinetic (µg/mL)
Unit µg/mL implied. Number only.

Prompt: Form field: reported solubility kinetic of `CCCn1c(COc2ccccc2OC)nc2ccccc21`
Response: 39.5

Prompt: Try the compound `Cn1c(=O)n(CCOc2ccc([N+](=O)[O-])cc2)c2ccccc21`
Response: 1.1

Prompt: Try the compound `CCOc1cccc2cc(C(=O)NCc3ccccc3)c(=N)oc12`
Response: 2.1

Prompt: Try the compound `O=C(NC1CCCCC1)c1c2c(nc3ccccc13)CCC2`
Response: 25.9

Prompt: Try the compound `N[C@@H](Cc1c[nH]c2ccc(O)cc12)C(=O)O`
Response: 32.6

Prompt: Try the compound `CCOC(=O)CNC(=O)CSc1nc(-c2ccc(OC)cc2)ns1`
Response: 2.8

Prompt: Try the compound `Cc1cc(=O)n(C)c2ccc(S(=O)(=O)N3CCOCC3)cc12`
Response: 46.5

Prompt: Try the compound `COc1ccc(NC(=O)CSc2ccccn2)c([N+](=O)[O-])c1`
Response: 7.3

Prompt: Try the compound `O=C(CN1C(=O)NC2(CCCC2)C1=O)NC(c1ccccc1)c1ccccc1`
Response: 14.5

Prompt: Try the compound `CN1C(=O)C(c2ccccc2)C(=O)N(C)C1=O`
Response: 30.5

Prompt: Try the compound `COc1cc(N2Cc3ccccc3C2)ccc1C=O`
Response: 1.8

Prompt: Try the compound CCCCCC1CCC(C(=O)NCCN2CCOCC2)CC1 (stereo not drawn)
Response: 35.6

Prompt: Try the compound CCCc1nc2oc3c(NCC(C)O)ncnc3c2c2c1CCCC2 (stereo not drawn)
Response: 0.4

Prompt: Try the compound `Cc1cccc(C)c1N1C(=O)[C@@H]2C(c3ccccc3Cl)=NO[C@@H]2C1=O`
Response: 39.6

Prompt: Try the compound `N#Cc1cccc(C(=O)Nc2cccc(S(=O)(=O)N3CCCC3)c2)c1`
Response: 5.8

Prompt: Try the compound `O=C(C1CC1)N1CCN(c2ccc([N+](=O)[O-])cc2-n2cccc2)CC1`
Response: 6.3

Prompt: Try the compound `COc1ccc(NC(=O)c2cccc(-c3ccc(O)cc3)c2)cn1`
Response: 9.7

Prompt: Try the compound `CCN1C(=O)/C(=C2\SC(N3CCOCC3)=NC2=O)c2ccccc21`
Response: 0.9

These entries and their values trace back to PubChem BioAssay AID1996.
